# STUDY SYSTEM: catalytic domain of human Cathepsin S (Homo sapiens (Human), UniProt P25774)
# Sequence (P25774 115-331): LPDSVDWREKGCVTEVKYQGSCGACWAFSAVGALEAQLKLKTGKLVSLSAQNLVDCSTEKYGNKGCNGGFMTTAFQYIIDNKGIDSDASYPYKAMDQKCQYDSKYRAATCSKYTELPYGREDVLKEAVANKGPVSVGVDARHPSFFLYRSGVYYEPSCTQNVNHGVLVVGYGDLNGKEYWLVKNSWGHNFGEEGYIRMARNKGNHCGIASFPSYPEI
# ASSAY: Enzymatic activity of the catalytic domain of human Cathepsin S (fluorogenic substrate Z-Val-Val-Arg-AMC)
# Format: biochemical
# CONDITION SET: Ki from IC50 by Cheng-Prusoff equation
RESULT TYPE: log10 of Ki (log10 of the value in nM)
Form field - Quantity: Ki; Unit: nM; Scale: log10

In [3]: df
Out[3]:
                                   compound                              study_system  result
0  CC(F)(F)C[C@H](NC(=O)N1CCC2(CC1)CC(=O)N(CC1CC1)C2)C(=O)NC1(C#N)CC1 [Example 88]  catalytic domain of human Cathepsin S (Homo sapiens (Human), UniProt P25774)    0.95
1  CC(F)(F)C[C@H](NC(=O)N1CCC2(CC1)NCC(C)(C)CO2)C(=O)NC1(C#N)CC1 [Example 45]  catalytic domain of human Cathepsin S (Homo sapiens (Human), UniProt P25774)    1.38
2  CC(F)(F)C[C@H](NC(=O)N1CCC2(CCCC2)CC1)C(=O)NC1(C#N)CC1 [Example 36]  catalytic domain of human Cathepsin S (Homo sapiens (Human), UniProt P25774)    0.30
3  CC(F)(F)C[C@H](NC(=O)N1CCC2(CC1)CCN(Cc1ccccc1)C2=O)C(=O)NC1(C#N)CC1 [Example 49]  catalytic domain of human Cathepsin S (Homo sapiens (Human), UniProt P25774)    1.20

Please report log10 of Ki for every entry that follows.
1. CC(F)(F)C[C@H](NC(=O)N1CCC2(CC1)OCc1ccccc12)C(=O)NC1(C#N)CC1 [Example 78]
2. CC(F)(F)C[C@H](NC(=O)N1CCC2(CCCc3ccccc32)C1)C(=O)NC1(C#N)CC1 (stereo partly shown) [Example 79]
3. CC(F)(F)C[C@H](NC(=O)N1CCC2(CC1)OCCO2)C(=O)NC1(C#N)CC1 [Example 37]

Result:
1: 1.28; 2: 0.95; 3: 1.11

Give log10 of Ki for each listed item.
1. N#CC1(NC(=O)[C@H](CC(F)(F)Cc2ccccc2)NC(=O)N2CCC3(CC2)CC3)CC1 [Example 70]
2. CC(F)(F)C[C@H](NC(=O)N1CCC2(CCCCC2)C1)C(=O)NC1(C#N)CC1 [Example 77]
3. CC(F)(F)C[C@H](NS(=O)(=O)N1CCC2(CCCC2)CC1)C(=O)NC1(C#N)CC1 [Example 74]
4. CC(C)C[C@H](NC(=O)C1CCC2(CC1)OCCO2)C(=O)NC1(C#N)CC1 [Example 35]
5. CCCC(F)(F)C[C@H](NC(=O)N1CCC2(CC1)CCN(c1ccc(OC)cc1)C2)C(=O)NC1(C#N)CC1 [Example 91]
6. N#CC1(NC(=O)[C@H](CC(F)(F)Cc2ccccc2)NC(=O)N2CCC3(CC2)CCN(C2CC2)CC3)CC1 [Example 97]

Result:
1. -0.52
2. 0.85
3. 1.20
4. 2.18
5. 0.30
6. 0.00

====

# STUDY SYSTEM: catalytic domain of human Cathepsin K (Homo sapiens (Human), UniProt P43235)
# Sequence (P43235 115-329): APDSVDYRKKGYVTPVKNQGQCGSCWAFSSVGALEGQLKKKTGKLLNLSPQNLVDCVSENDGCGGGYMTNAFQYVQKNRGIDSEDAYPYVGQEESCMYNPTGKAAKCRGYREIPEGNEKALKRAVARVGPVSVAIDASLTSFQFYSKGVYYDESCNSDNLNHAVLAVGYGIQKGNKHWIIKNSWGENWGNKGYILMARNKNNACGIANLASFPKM
# ASSAY: Enzymatic activity of the catalytic domain of human Cathepsin K (fluorogenic substrate Boc-Ala-Gly-Pro-Arg-AMC)
# Format: biochemical
# CONDITION SET: Ki from IC50 by Cheng-Prusoff equation
Give measured log10 of Ki for each item. Keep answers brief.
Please interpret these as log10 of Ki where Ki is in nM.

For orientation, consider the following solved cases.
>>> print(df.to_string())
                                   molecule  result_type  result
0  CN1CCC(C#N)(NC(=O)[C@H](CC(C)(F)F)NC(=O)N2CCC3(CC2)CC3)CC1 [Example 103]  log10 of Ki    1.92
1  CC(F)(F)C[C@H](NC(=O)N1CCOC12CCCCC2)C(=O)NC1(C#N)CC1 [Example 80]  log10 of Ki    1.56
2  CC(F)(F)C[C@H](NC(=O)N1CCC2(CCCC2)CC1)C(=O)NC1(C#N)CC1 [Example 36]  log10 of Ki    0.48

Batch of 7 molecules: report log10 of Ki for each.
1. CC(F)(F)C[C@H](NC(=O)N1CCC2(CCCCC2)C1)C(=O)NC1(C#N)CC1 [Example 77]
2. CC(F)(F)C[C@H](NC(=O)N1CCC2(CCCCC2)CC1)C(=O)NC1(C#N)CC1 [Example 9]
3. CC(F)(F)C[C@H](NC(=O)N1CCC2(CC1)OCCO2)C(=O)NC1(C#N)CC1 [Example 37]
4. CC(F)(F)C[C@H](NC(=O)N1CCC2(CC1)NCC(C)(C)CO2)C(=O)NC1(C#N)CC1 [Example 45]
5. CC(F)(F)C[C@H](NC(=O)N1CCC2(CCCc3ccccc32)C1)C(=O)NC1(C#N)CC1 (stereo partly drawn) [Example 79]
6. CC(F)(F)C[C@H](NC(=O)N1CCC2(CC1)CC(=O)N(CC1CC1)C2)C(=O)NC1(C#N)CC1 [Example 88]
7. N#CC1(NC(=O)[C@H](CC(F)(F)Cc2ccccc2)NC(=O)N2CCC3(CC2)CCN(C2CC2)CC3)CC1 [Example 97]

Result:
[1.30, 0.26, 1.32, 1.32, 1.20, 1.18, 2.60]

For each listed entry, give its log10 of Ki.
1. CC(F)(F)C[C@H](NC(=O)N1CCC2(CC1)OCc1ccccc12)C(=O)NC1(C#N)CC1 [Example 78]
2. CC(F)(F)C[C@H](NS(=O)(=O)N1CCC2(CCCC2)CC1)C(=O)NC1(C#N)CC1 [Example 74]
3. CC(F)(F)C[C@H](NC(=O)N1CCC2(CC1)C(=O)NCN2c1ccccc1)C(=O)NC1(C#N)CC1 [Example 42]
4. N#CC1(NC(=O)[C@H](CC(F)(F)Cc2ccccc2)NC(=O)N2CCC3(CC2)CC3)CC1 [Example 70]

Result:
1: 1.58; 2: 2.18; 3: 1.51; 4: 2.96

Quick one: give me log10 of Ki for each item below, same order please.
1. CC(F)(F)C[C@H](NC(=O)N1CCC2(CC1)CCN(Cc1ccccc1)C2=O)C(=O)NC1(C#N)CC1 [Example 49]
2. CC(F)(F)C[C@H](NC(=O)N1CCC2(CC1)CC2)C(=O)NC1(C#N)CC1 [Example 63]
3. CC(F)(F)C[C@H](NC(=O)N1CC2(CCN(C3CC3)CC2)C1)C(=O)NC1(C#N)CC1 [Example 83]
4. CCCC(F)(F)C[C@H](NC(=O)N1CCC2(CC1)CCN(C1CC1)CC2)C(=O)NC1(C#N)CC1 [Example 94]
5. N#CC1(NC(=O)C2(NC(=O)N3CCC4(CCCC4)CC3)CCCCC2)CC1 [Example 53]
6. CC(F)(F)C[C@H](NC(=O)N1CCC2(CC1)CCN(C1CC1)CC2)C(=O)NC1(C#N)CC1 [Example 56]
7. CCCC(F)(F)C[C@H](NC(=O)N1CCC2(CC1)CCN(c1ccc(OC)cc1)C2)C(=O)NC1(C#N)CC1 [Example 91]

Result:
1.72
1.34
1.45
1.38
0.65
0.88
1.63

Give log10 of Ki for each of the items listed below.
1. CC(C)C[C@H](NC(=O)C1CCC2(CC1)OCCO2)C(=O)NC1(C#N)CC1 [Example 35]
2. CCCC(F)(F)C[C@H](NC(=O)N1CCC2(CC1)CC2)C(=O)NC1(C#N)CC1 [Example 102]

Result:
1.49
1.52

Task: Endpoint output: log10 of Ki of CC(F)(F)C[C@H](NC(=O)N1CCC2(CC1)CCC(C)(C)O2)C(=O)NC1(C#N)CC1 [Example 76] . Value?
Result: 1.67

====

# STUDY SYSTEM: catalytic domain of human Cathepsin S (Homo sapiens (Human))
# ASSAY: Enzymatic activity of the catalytic domain of human Cathepsin S (fluorogenic substrate Z-Val-Val-Arg-AMC)
# Format: biochemical
# CONDITION SET: Ki from IC50 by Cheng-Prusoff equation
RESULT TYPE: Ki (nM)
Give bare numbers, in nM.

>>> print(df.to_string())
                                   molecule  result_type  unit_text  result
0  CC(F)(F)C[C@H](NC(=O)N1CC2(CCN(C3CC3)CC2)C1)C(=O)NC1(C#N)CC1           Ki         nM       8

Give Ki for all molecules that follow.
1. CC(F)(F)C[C@H](NC(=O)N1CCC2(CC1)CC2)C(=O)NC1(C#N)CC1
2. CC(F)(F)C[C@H](NC(=O)N1CCC2(CC1)CCN(C1CC1)CC2)C(=O)NC1(C#N)CC1
3. CC(F)(F)C[C@H](NC(=O)N1CCC2(CCCCC2)CC1)C(=O)NC1(C#N)CC1
4. CCCC(F)(F)C[C@H](NC(=O)N1CCC2(CC1)CC2)C(=O)NC1(C#N)CC1

Result:
[5, 7.2, 3.2, 0.5]
